Reference source: ChEMBL document CHEMBL2417458

biological target: 85/88 kDa calcium-independent phospholipase A2 (Homo sapiens) (UniProt O60733); assay: Inhibition of human group 6A calcium-independent PLA2 treated in mixed-micelles by modified Dole assay
// reported XI50 (mole fraction) per item
measurement-type: XI50 (mole fraction)

O=C(CCCCc1ccc2c(c1)OCO2)C(F)(F)F 0.0025
O=C(CCCCc1ccc(-c2ccccc2)cc1)C(F)(F)C(F)(F)F 0.0134
O=C(CCCCc1cccc2ccccc12)C(F)(F)F 0.0018
O=C(CCCCc1ccc(F)cc1)C(F)(F)C(F)(F)F 0.0003
COc1ccc(CCCCC(=O)C(F)(F)F)cc1 0.0001
O=C(CCCCc1cccc2ccccc12)C(F)(F)C(F)(F)F 0.0034

* * *

Molecular target: 85/88 kDa calcium-independent phospholipase A2 (Homo sapiens)
Sequence (whole entry): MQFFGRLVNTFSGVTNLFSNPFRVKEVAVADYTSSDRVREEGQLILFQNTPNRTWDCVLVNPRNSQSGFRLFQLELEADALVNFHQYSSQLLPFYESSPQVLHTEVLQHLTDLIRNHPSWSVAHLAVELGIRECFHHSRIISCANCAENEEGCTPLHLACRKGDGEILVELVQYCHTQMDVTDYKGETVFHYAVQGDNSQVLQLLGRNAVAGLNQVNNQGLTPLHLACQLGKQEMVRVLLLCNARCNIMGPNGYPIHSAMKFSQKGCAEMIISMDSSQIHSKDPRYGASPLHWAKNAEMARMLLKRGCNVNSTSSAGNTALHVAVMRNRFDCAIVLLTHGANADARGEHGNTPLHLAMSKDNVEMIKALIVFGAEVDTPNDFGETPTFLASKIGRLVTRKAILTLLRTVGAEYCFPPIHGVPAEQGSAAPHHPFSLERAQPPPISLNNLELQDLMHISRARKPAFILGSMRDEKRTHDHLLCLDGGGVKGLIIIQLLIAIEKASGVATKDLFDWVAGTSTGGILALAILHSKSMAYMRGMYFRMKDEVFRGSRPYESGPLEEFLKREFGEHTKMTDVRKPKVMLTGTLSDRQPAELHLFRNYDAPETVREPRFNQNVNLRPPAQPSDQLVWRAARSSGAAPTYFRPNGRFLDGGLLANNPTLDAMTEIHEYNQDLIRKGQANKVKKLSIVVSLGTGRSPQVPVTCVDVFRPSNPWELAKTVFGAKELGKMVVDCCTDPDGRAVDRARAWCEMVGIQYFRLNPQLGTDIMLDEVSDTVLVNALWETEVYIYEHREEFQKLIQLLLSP
Assay: Inhibition of human group 6A calcium-independent PLA2 at 0.091 mole fraction in mixed-micelles by modified Dole assay
measurement-type: inhibition (%)

COc1ccc(CCCCC(=O)C(F)(F)C(F)(F)F)c(OC)c1 95.6
O=C(CCCCc1ccc(-c2ccccc2)cc1)C(F)(F)F 97.9
O=C(CCCCc1ccc2c(c1)OCO2)C(F)(F)C(F)(F)F 99.5
O=C(CCCCc1cccc2ccccc12)C(F)(F)F 98.7
O=C(CCCCc1cccc2ccccc12)C(F)(F)C(F)(F)F 96.4
COc1ccccc1CCCCC(=O)C(F)(F)F 82.8
COc1ccc(CCCCC(=O)C(F)(F)F)cc1OC 62.5
O=C(CCCCc1ccc(-c2ccccc2)cc1)C(F)(F)C(F)(F)F 94.6
O=C(CCc1ccccc1-c1ccccc1)C(F)(F)C(F)(F)F 90.4
COc1ccccc1CCCCC(=O)C(F)(F)C(F)(F)F 95.5
O=C(CCCCc1ccc(C(F)(F)F)cc1)C(F)(F)C(F)(F)F 98.9
O=C(CCCCc1ccc(C(F)(F)F)cc1)C(F)(F)F 99.9
O=C(CCCCc1ccc2c(c1)OCO2)C(F)(F)F 98.7
O=C(CCCCc1cccc2ccccc12)C(F)(F)C(F)(F)C(F)(F)F 76.7
COc1ccc(CCCCC(=O)C(F)(F)F)c(OC)c1 89.6
COc1ccc(CCCCC(=O)C(F)(F)C(F)(F)F)cc1 99.8
COc1ccc2cc(CCCCC(=O)C(F)(F)F)ccc2c1 92.6
O=C(CCc1ccccc1-c1ccccc1)C(F)(F)F 75
COc1ccc(CCCCC(=O)C(F)(F)C(F)(F)F)cc1OC 78.3
COc1ccc(CCCCC(=O)C(F)(F)F)cc1 99.8
O=C(CCCc1ccccc1)C(F)F 86.5
COc1ccc2cc(CCCCC(=O)C(F)(F)C(F)(F)F)ccc2c1 92.5
O=C(CCCCc1ccc(F)cc1)C(F)(F)F 98.5
O=C(CCCCc1ccc(F)cc1)C(F)(F)C(F)(F)F 98.2
O=C(CCCCc1ccccc1)C(F)F 87.4
